Collected TGI values appear next to each entry.
# Tested on: MCF7 breast
# assay: NCI tumour cell line growth inhibition, 48 h

compound: CCCCCCCCCCCCCC(=S)NCCCC[C@H](NC(=O)OCc1ccccc1)C(=O)Nc1ccccc1
TGI: > 100 µM
--
compound: COc1cc2c(cc1OCCCCCOc1cc3c(cc1OC)C(=O)N1CCC[C@H]1C(=O)N3)N=C[C@@H]1CCCN1C2=O
TGI: 0.261 µM
--
compound: CC1(C)N=C(N)N=C(N)N1c1ccc(CCCCc2ccc(S(=O)(=O)F)cc2)cc1
TGI: 14.2 µM
--
compound: COC1(C(=O)N2Cc3nc(Cl)nc(N[C@H](C)c4cc(N)cc(C(F)(F)F)c4)c3C2)CCOCC1
TGI: 49.3 µM
--
compound: CC(=O)Nc1cccc(-n2c(=O)n(C3CC3)c(=O)c3c(Nc4ccc(I)cc4F)n(C)c(=O)c(C)c32)c1
TGI: > 69.5 µM
--
compound: COc1cc(-n2cc(-c3ccc(Cl)c(Cl)c3)nc2SCc2ccccc2)cc(OC)c1OC
TGI: > 100 µM
--
compound: CC(C)(C)c1cc(O)c(O)c(C(C)(C)C)c1
TGI: 12.8 µM
--
compound: O=C1CC(c2ccco2)C2(C(=O)NC(=O)NC2=O)C(c2ccco2)C1 (stereo not given)
TGI: > 75 µM
--
compound: CC(C)(C)OC(=O)NC(C)(C)C(=O)NCCC(=O)O
TGI: > 100 µM
--
compound: N#C/C(=C\NC(=S)Nc1ccc(S(=O)(=O)Nc2ccccn2)cc1)C(N)=O
TGI: > 100 µM
--
compound: CC(C)=CCN1CC(C)C(=O)Nc2cc(Cl)ccc21 (stereo not given)
TGI: 44.6 µM
--
compound: OCC1CCCC(n2cnc3c(=S)nc[nH]c32)O1 (stereo not given)
TGI: > 100 µM
--
compound: O=C1CC(O)c2c1csc2Br (stereo not given)
TGI: 45.7 µM
--
compound: COc1ccc(-c2c(C#N)c(N)n(C3OC(CO)C(O)C(O)C3O)c(=S)c2C#N)cc1 (stereo not given)
TGI: > 100 µM
--
compound: Cc1sc2nc3n(c(=O)c2c1C)N=CN(c1ccccc1)C3
TGI: > 100 µM
--
compound: CC(C)(C)C(=O)C(CC(=O)c1ccccc1)C(=O)C(C)(C)C
TGI: > 100 µM
--
compound: COc1cc2ncn(-c3cc(OCc4ccccc4Cl)c(C(N)=O)s3)c2cc1OC
TGI: > 25 µM
--
compound: Cc1cc([C@@H](C)Nc2ccccc2C(=O)O)c2nc(N3CCOCC3)cc(=O)n2c1
TGI: > 10 µM
--
compound: CCOP(=O)(OCC)[C@H](O)c1ccsc1
TGI: > 100 µM
--
compound: CC(=O)OCC1OC(O[C@@H]2C[C@H]3C(C)(C)[C@H](OC(C)=O)CC[C@]3(C)[C@H]3CCC4=C([C@@H](C)C[C@@H](O)[C@H](O)C(C)(C)O)CC[C@@]4(C)[C@@]32C)C(O)C(O)C1O (stereo not given in full)
TGI: 11.9 µM
